target-or-system: Beta-secretase 1 (Homo sapiens, UniProt P56817)
Sequence (P56817 whole entry): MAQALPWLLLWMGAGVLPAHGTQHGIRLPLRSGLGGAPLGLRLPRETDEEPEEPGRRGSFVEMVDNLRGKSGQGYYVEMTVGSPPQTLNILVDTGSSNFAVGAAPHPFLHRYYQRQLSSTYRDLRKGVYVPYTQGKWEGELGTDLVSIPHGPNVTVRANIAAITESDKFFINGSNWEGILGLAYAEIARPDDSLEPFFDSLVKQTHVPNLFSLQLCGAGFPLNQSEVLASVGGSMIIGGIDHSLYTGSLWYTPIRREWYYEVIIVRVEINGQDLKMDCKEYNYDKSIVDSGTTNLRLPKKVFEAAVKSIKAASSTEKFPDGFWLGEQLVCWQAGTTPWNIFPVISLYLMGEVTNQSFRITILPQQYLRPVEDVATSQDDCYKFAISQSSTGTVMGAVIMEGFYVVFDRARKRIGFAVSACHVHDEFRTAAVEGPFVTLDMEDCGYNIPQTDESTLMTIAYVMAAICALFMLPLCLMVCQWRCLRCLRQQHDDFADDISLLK
experimental-details: Inhibition of human recombinant BACE1 at 2 uM by FRET assay
experimental-endpoint: inhibition (%)

Below, 4 compounds whose answers are already recorded.
smiles	target-or-system	experimental-endpoint	measurement
O=C(N[C@@H](Cc1ccccc1)[C@H](O)C(=O)Nc1cccc(-c2nn[nH]n2)c1)c1cc(C(=O)N2COC[C@@H]2Cc2c[nH]c3ccccc23)cc([N+](=O)[O-])c1	Beta-secretase 1 (Homo sapiens, UniProt P56817)	inhibition	57
O=C(N[C@@H](Cc1ccccc1)[C@H](O)C(=O)Nc1cccc(-c2nn[nH]n2)c1)c1cc(C(=O)N2COC[C@@H]2Cc2ccccc2)cc([N+](=O)[O-])c1	Beta-secretase 1 (Homo sapiens, UniProt P56817)	inhibition	89
O=C(N[C@@H](Cc1ccccc1)[C@H](O)C(=O)Nc1cccc(-c2nn[nH]n2)c1)c1cccc(C(=O)N2COC[C@@H]2c2ccccc2)c1	Beta-secretase 1 (Homo sapiens, UniProt P56817)	inhibition	85
C[C@@H](NC(=O)c1cc(C(=O)N[C@@H](Cc2ccccc2)[C@H](O)C(=O)Nc2cccc(-c3nn[nH]n3)c2)cc([N+](=O)[O-])c1)c1ccccc1	Beta-secretase 1 (Homo sapiens, UniProt P56817)	inhibition	83

[A] C[C@@H](NC(=O)c1cc(C(=O)N[C@@H](Cc2ccccc2)[C@H](O)C(=O)Nc2cccc(-c3nn[nH]n3)c2)cc([N+](=O)[O-])c1)c1ccc(F)cc1
[B] O=C(N[C@@H](Cc1ccccc1)[C@H](O)C(=O)Nc1cccc(-c2nn[nH]n2)c1)c1cc(C(=O)N2CCCCCC2)cc([N+](=O)[O-])c1
From the items above, decide which of A and B has the lower inhibition reading. Answer format: the label of the selected item. B

###

target-or-system: Beta-secretase 1 (Homo sapiens, UniProt P56817)
experimental-details: Inhibition of human recombinant BACE1 at 2 uM by FRET assay
experimental-endpoint: inhibition (%)

smiles	target-or-system	measure-unit	inhibition
CC(C)C[C@H]1COCN1C(=O)c1cc(C(=O)N[C@@H](Cc2ccccc2)[C@H](O)C(=O)Nc2cccc(-c3nn[nH]n3)c2)cc([N+](=O)[O-])c1	Beta-secretase 1 (Homo sapiens, UniProt P56817)	%	85
O=C(N[C@@H](Cc1ccccc1)[C@H](O)C(=O)Nc1cccc(-c2nn[nH]n2)c1)c1cc(I)cc(C(=O)N2COC[C@@H]2c2ccccc2)c1	Beta-secretase 1 (Homo sapiens, UniProt P56817)	%	98
CC(=O)Oc1cc(C(=O)N[C@@H](Cc2ccccc2)[C@H](O)C(=O)Nc2cccc(-c3nn[nH]n3)c2)cc(C(=O)N2COC[C@@H]2c2ccccc2)c1	Beta-secretase 1 (Homo sapiens, UniProt P56817)	%	79
